The measured values listed here are drawn from PubChem BioAssay (NCI).

measurement description: NCI Yeast Anticancer Drug Screen. Data for the sgs1 mgt1 strain (AID 161);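 further: 0% = growth of cultures given vehicle only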
condition notes: S. cerevisiae sgs1 mgt1 strain, at 50.0 µM, active compounds read high
The panel holds about 79,000 compounds, 15% with a hit somewhere; the sample as a whole holds those more often.
Here, each record is paired with measured growth inhibition data.
Just the number in %, nothing appended.

compound	endpoint unit	reading
CCc1cc(C)cc2[n+]1CC=C2C	%	6.85

Prompt line: // returns reported growth inhibition for input O=NN1CCN(N=O)CC1
Response line: 6.3

Prompt line: Proceed to O=C(O)c1ccccc1/C=N\NC(=S)NC1CN2CCC1CC2 (stereo unspecified)
Response line: 6.85

Prompt line: CN1CCC(O)(c2ccccc2)C(c2ccccc2)C1 (stereo unspecified) , same question.
Response line: -8.45

Prompt line: What about this compound? [C-]#[O+].[C-]#[O+].[C-]#[O+].[C-]#[O+].[Fe].[N-]=C(C(F)(F)F)C(F)(F)F
Response line: -11.7

Prompt line: Also NC(Cc1ccc(Cl)cc1)c1nn[nH]n1 (stereo unspecified) ?
Response line: -4.1

Prompt line: One more compound: CCC[N+]12C(O)C(CC)C3CC1C1N(C)c4ccc(Br)cc4C14CC2C3C4O (stereo unspecified)
Response line: 4.35

Prompt line: Query COc1ccc([As]=O)cc1N (stereo unspecified) next
Response line: 8.75

Prompt line: Record: Cc1ccc(S(=O)(=O)N/N=C(\CCN2CCCC2)CC(c2ccccc2)c2c(O)c3ccccc3oc2=O)cc1 (stereo unspecified)
Response line: 20.8

Prompt line: Queued: O.[Cr+3].[NH2-].[NH2-].[NH2-].[NH2-].[NH2-].[O-][Cl+3]([O-])([O-])O
Response line: -0.4

Prompt line: Continue with CN(C)c1ccc(C=O)cc1.[C-]#[O+].[C-]#[O+].[C-]#[O+].[Cr]
Response line: -57.5
